- measurement notes: chemical genetic growth profiling, strain panel (AID 1159580);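 note: tested at 20 µM; growth read once vehicle control cultures reached saturation at 30 °C; 1 = growth at the plate median or of vehicle wells; lower values mean less growth of the strain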
- experimental parameters: S. cerevisiae deletion strains, growth OD, locus YDL101C, strain DUN1, stronger effect = lower value
Screen size: about 5,500 compounds; about 2,000 (36%) were called active. Inconclusive results (about 18%) are left out. This is one part of the list.
property measured: normalized growth

Example results:
[[record]]
given_smiles = "Oc1cc(O)c2c(c1)O[C@H](c1cc(O)c(O)c(O)c1)[C@H](O)C2"
property_measured = "normalized growth"
experimental_result = "0.985 (inactive)"

[[record]]
given_smiles = "Oc1ccc2c(c1)O[C@H](c1ccc(O)c(O)c1)[C@@H](O)C2"
property_measured = "normalized growth"
experimental_result = "1.03 (inactive)"

[[record]]
given_smiles = "O=C1c2ccc(O)cc2O[C@H](c2cc(O)c(O)c(O)c2)[C@H]1O"
property_measured = "normalized growth"
experimental_result = "0.93 (inactive)"


Turning to the following molecule.
Please look at this molecule and report its normalized growth: Oc1cc(O)c2c(c1)O[C@H](c1ccc(O)c(O)c1)[C@H](O)C2 1 (inactive)

* * *

Listed compounds paired with reported normalized growth
- measurement notes: chemical genetic growth profiling, strain panel (AID 1159580);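 note: tested at 20 µM; growth read once vehicle control cultures reached saturation at 30 °C; 1 = growth at the plate median or of vehicle wells; lower values mean less growth of the strain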
- experimental parameters: S. cerevisiae deletion strains, growth OD, locus YHR027C, strain rpn1, stronger effect = lower value
Hit rate of the full screen: of about 5,500 compounds, about 2,000 (36%) were called active. Not shown: some 18% with an inconclusive outcome. The list shows a part of the results.
Give a plain numeric answer without units written out.

Example results:
[[record]]
compound = "COC(=O)[C@@H]1OC(=O)C2OC23[C@@]1(C)CCC1[C@]2(C)C(C[C@H](O)[C@]13C)C(C)(C)[C@H](OC(C)=O)C[C@@H]2OC(C)=O (stereo not given in full)"
property_measured = "normalized growth"
experimental_result = 1.02

[[record]]
compound = "CC(=O)S[C@@H]1CC2=CC(=O)CC[C@]2(C)[C@H]2CC[C@@]3(C)[C@@H](CC[C@@]34CCC(=O)O4)C12 (stereo not given in full)"
property_measured = "normalized growth"
experimental_result = 1.01

[[record]]
compound = "CN1CCC(OC(c2ccccc2)c2ccccc2)CC1"
property_measured = "normalized growth"
experimental_result = 0.993

[[record]]
compound = "O=C1NCC2(CCN(CCc3ccccc3)CC2)O1"
property_measured = "normalized growth"
experimental_result = 1

[[record]]
compound = "Cc1ccccc1C(OCCN(C)C)c1ccccc1 (stereo not given)"
property_measured = "normalized growth"
experimental_result = 0.997


Please look at this compound and report its normalized growth: CC1(O)CC2C(CC1O)C2(C)C (stereo not given) 0.995

Please look at this compound and report its normalized growth: C[C@]12CCC(=O)C=C1C=CC1C2CC[C@@]2(C)C1CC[C@@]2(O)CCC(=O)O (stereo not given in full) 1.02

* * *

- measurement notes: chemical genetic growth profiling, strain panel (AID 1159580);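 note: tested at 20 µM; growth read once vehicle control cultures reached saturation at 30 °C; 1 = growth at the plate median or of vehicle wells; lower values mean less growth of the strain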
- experimental parameters: S. cerevisiae deletion strains, growth OD, locus YCL011C, strain gbp2, stronger effect = lower value
Out of some 5,500 compounds screened, about 2,000 (36%) were called active. Inconclusive results (about 18%) are left out. Some of the results follow.
property measured: normalized growth
Give a plain numeric answer without units written out.

Example results:
[[record]]
molecule = "C[C@]12CCC(=O)C=C1C=CC1C2CC[C@@]2(C)C1CC[C@@]21CCC(=O)O1 (some centres undefined)"
property_measured = "normalized growth"
experimental_result = 0.968

[[record]]
molecule = "COc1ccc(OC)c(C(O)CNC(=O)CN)c1 (centres undefined)"
property_measured = "normalized growth"
experimental_result = 1.01

[[record]]
molecule = "N=c1ccn2c(n1)OC1C(O)C(CO)OC12 (centres undefined)"
property_measured = "normalized growth"
experimental_result = 1.01

[[record]]
molecule = "CC[C@]1(O)CC2CN(CCc3c([nH]c4ccccc34)[C@@](C(=O)OC)(c3cc4c(cc3OC)N(C)[C@H]3[C@@](O)(C(=O)OC)[C@H](OC(C)=O)[C@]5(CC)C=CCN6CC[C@]43[C@@H]65)C2)C1 (some centres undefined)"
property_measured = "normalized growth"
experimental_result = 0.983

[[record]]
molecule = "C[C@]12CCC(=O)C=C1C=CC1C2CC[C@@]2(C)C1CC[C@@]2(O)CCC(=O)O (some centres undefined)"
property_measured = "normalized growth"
experimental_result = 1.03


Please look at this molecule and report its normalized growth: Oc1ccc2c(c1)O[C@H](c1ccc(O)c(O)c1)[C@@H](O)C2 1.02

Please look at this molecule and report its normalized growth: O=C1NCC2(CCN(CCc3ccccc3)CC2)O1 1.01

Please look at this molecule and report its normalized growth: Cc1ccc(C(=O)Nc2ccc(S(=O)(=O)O)c3cc(S(=O)(=O)O)cc(S(=O)(=O)O)c23)cc1NC(=O)c1cccc(NC(=O)Nc2cccc(C(=O)Nc3cc(C(=O)Nc4ccc(S(=O)(=O)O)c5cc(S(=O)(=O)O)cc(S(=O)(=O)O)c45)ccc3C)c2)c1 1.02

Please look at this molecule and report its normalized growth: CC(=O)S[C@@H]1CC2=CC(=O)CC[C@]2(C)[C@H]2CC[C@@]3(C)[C@@H](CC[C@@]34CCC(=O)O4)C12 (some centres undefined) 0.984

Please look at this molecule and report its normalized growth: CN1CCC(OC(c2ccccc2)c2ccccc2)CC1 0.998

Please look at this molecule and report its normalized growth: c1ccc2c(c1)sc1ccccc12 0.815

Please look at this molecule and report its normalized growth: Nc1ncn[nH]1 1.02

Please look at this molecule and report its normalized growth: C=C[C@@](C)(O)CCC1C(=C)CCC2[C@@](C)(CO)CCC[C@]12C (some centres undefined) 1.02

Please look at this molecule and report its normalized growth: Clc1ccc(C(OCCN2CCCCC2)c2ccccc2)cc1 (centres undefined) 1.03
